Literature pIC50 values, system: Cytochrome P450 2C9 (Homo sapiens, UniProt P11712).
pIC50: −log10 of the molar value.

The measured pIC50 that C[C@@H](N)Cn1nnc(-c2ccc(Oc3ccc(Cl)cc3)cc2)n1 showed for Cytochrome P450 2C9 (Homo sapiens, UniProt P11712) is < 4.70

The measured pIC50 that Cc1cccc(C)c1CNc1nc(-n2ccccc2=O)cc2c(C)c(C)n(CCO)c12 showed for Cytochrome P450 2C9 (Homo sapiens, UniProt P11712) is 4.94

The measured pIC50 that COc1cc2c(Nc3ccccc3CCN3CCOCC3)c(C(N)=O)cnc2cc1-c1c(C)noc1C showed for Cytochrome P450 2C9 (Homo sapiens, UniProt P11712) is 5.66

The measured pIC50 that O=c1n(-c2ccc(C(F)(F)C(O)(Cn3cnnn3)c3ccc(F)cc3F)nc2)cnn1C1CCCC1 (configuration not stated) showed for Cytochrome P450 2C9 (Homo sapiens, UniProt P11712) is 4.92

The measured pIC50 that CCc1c(C)nc(-c2ccc(Cl)s2)nc1Nc1ccc(CC(=O)O)cc1 showed for Cytochrome P450 2C9 (Homo sapiens, UniProt P11712) is < 5.00

The measured pIC50 that O=S(=O)(CC[C@@H]1OCC[C@@]2(S(=O)(=O)c3ccc(Cl)cc3)c3c(F)ccc(F)c3OC[C@@H]12)[C@@H]1CCNC1 showed for Cytochrome P450 2C9 (Homo sapiens, UniProt P11712) is < 4.70

The measured pIC50 that Cn1nc(Cc2ccc(NS(N)(=O)=O)cc2)c2ccccc2c1=O showed for Cytochrome P450 2C9 (Homo sapiens, UniProt P11712) is < 5.00

The measured pIC50 that O=C(O)CCC1(c2ccccc2C(F)(F)F)CCCN(C(=O)Nc2ccc(Cl)cc2)C1 (configuration not stated) showed for Cytochrome P450 2C9 (Homo sapiens, UniProt P11712) is < 5.00

The measured pIC50 that O=C(C1CCN(Cc2ccncc2)CC1)N1CCC(n2c(=O)n(CCN3CCOCC3)c3ccccc32)CC1 showed for Cytochrome P450 2C9 (Homo sapiens, UniProt P11712) is < 4.70

The measured pIC50 that O=C(c1cc(F)cc(Cl)c1)N1CCn2nc(-c3ccc(F)cn3)cc2C1 showed for Cytochrome P450 2C9 (Homo sapiens, UniProt P11712) is < 4.40

The measured pIC50 that Cn1c(C(=O)N2CCN(Cc3ccc(OCC(F)(F)F)cc3)CC2)cc2ccc(Oc3cnc(-c4nc(-c5ccc(F)cc5)no4)cn3)cc21 showed for Cytochrome P450 2C9 (Homo sapiens, UniProt P11712) is < 4.30

The measured pIC50 that CN(C)CCn1c(=O)n(C2CCN(C(=O)C3CCN(Cc4ccncc4)CC3)CC2)c2ccccc21 showed for Cytochrome P450 2C9 (Homo sapiens, UniProt P11712) is < 4.70

The measured pIC50 that O=C(C1CCN(Cc2ccncc2)CC1)N1CCC(n2c(=O)n(CCN3CCCCC3)c3ccccc32)CC1 showed for Cytochrome P450 2C9 (Homo sapiens, UniProt P11712) is < 4.70

The measured pIC50 that COc1ccc2c(c1)[C@]1(C[C@H]1c1ccc3c(/C=C/c4ccc(CN(C)C)cc4)n[nH]c3c1)C(=O)N2 (relative stereo) showed for Cytochrome P450 2C9 (Homo sapiens, UniProt P11712) is 6.07

The measured pIC50 that C[C@H]1CO[C@@H]2Cn3cc(C(=O)NCc4ccc(F)nc4F)c(=O)c(O)c3C(=O)N12 showed for Cytochrome P450 2C9 (Homo sapiens, UniProt P11712) is < 5.00

The measured pIC50 that COC(=O)N1C[C@@H](C)N(c2ncc3[nH]nc(-c4ccc(N5CCN(C)CC5)cc4)c3n2)[C@@H](C)C1 showed for Cytochrome P450 2C9 (Homo sapiens, UniProt P11712) is < 4.60

The measured pIC50 that C[C@@H]1CC(c2cnc3c(C#N)nn([C@H](C)c4ccc(Cl)cc4Cl)c3n2)=CC[C@@H]1N1CCC[C@H]1CO showed for Cytochrome P450 2C9 (Homo sapiens, UniProt P11712) is < 5.00

The measured pIC50 that CS(=O)(=O)c1ccc2c(c1)CCC1(CCCN(C(=O)N[C@H]3C[C@@H]3c3ccccc3)CC1)O2 (relative stereo) showed for Cytochrome P450 2C9 (Homo sapiens, UniProt P11712) is < 5.00

The measured pIC50 that CC(C)C[C@@H]1C(=O)N[C@H](C2Cc3ccccc3C2)C(=O)N1[C@@H](C(=O)N(C)C)c1ccc(F)cc1F showed for Cytochrome P450 2C9 (Homo sapiens, UniProt P11712) is 4.31

The measured pIC50 that CCc1nc2c(Cc3ccc(C(=O)NO)cc3)cccc2c(=O)n1CCc1ccccc1 showed for Cytochrome P450 2C9 (Homo sapiens, UniProt P11712) is 5.68

The measured pIC50 that O=[N+]([O-])c1cnc(NCc2ccccc2Cl)nc1NCC1CCNCC1 showed for Cytochrome P450 2C9 (Homo sapiens, UniProt P11712) is 4.75

The measured pIC50 that C[C@@H]1CN(c2cc(-c3n[nH]c4ccc(OC5(C)CC5)cc34)ncn2)C[C@H](C)O1 showed for Cytochrome P450 2C9 (Homo sapiens, UniProt P11712) is < 4.30

The measured pIC50 that C[C@@H]1c2nnn(-c3cc(F)ccn3)c2CCN1C(=O)c1cccc(C(F)(F)F)c1Cl showed for Cytochrome P450 2C9 (Homo sapiens, UniProt P11712) is 5.55

The measured pIC50 that NC(=O)[C@]12CC3CC(C1)[C@@H](OC(=O)N1CC[C@H](Nc4ccc(C(F)(F)F)cn4)C1)C(C3)C2 showed for Cytochrome P450 2C9 (Homo sapiens, UniProt P11712) is 5.62

The measured pIC50 that O=C(O)C1=CCN(C2CCC3(Cc4ccccc4Oc4ccccc43)C2)CC1 (configuration not stated) showed for Cytochrome P450 2C9 (Homo sapiens, UniProt P11712) is < 5.00

The measured pIC50 that O=C1CCCN1Cc1c(F)cc(-n2nc(C(F)(F)F)c3c2CCOC3)cc1F showed for Cytochrome P450 2C9 (Homo sapiens, UniProt P11712) is < 5.00

The measured pIC50 that CN(C)Cc1ccc(/C=C/c2n[nH]c3cc([C@@H]4C[C@@]45C(=O)N(C)c4ccccc45)ccc23)cc1 showed for Cytochrome P450 2C9 (Homo sapiens, UniProt P11712) is 5.59

* * *

Literature IC50 values, system: Cytochrome P450 2C9 (Homo sapiens).
All answers are understood in µM, so give the number only.

Reported IC50 ( O=S(=O)(Nc1cc(Cl)cnc1Oc1cncc(Cl)c1)c1ccc(Cl)c(Cl)c1 ) = 1.07

Reported IC50 ( COC(=O)N[C@H](C(=O)N1CCC[C@H]1c1nc(Cl)c(-c2ccc(-c3ccc(-c4[nH]c([C@@H]5CCCN5C(=O)[C@@H](NC(=O)OC)C(C)C)nc4Cl)cc3)cc2)[nH]1)C(C)C ) = 81.6

Reported IC50 ( COc1c(Nc2ccc(S(C)(=O)=O)nc2C)ncnc1OC1CCN(C(=O)OC(C)C)CC1 ) = 8

Reported IC50 ( O=S(=O)(NCCO)c1ccc(-c2ccnc3[nH]c(C4CC4)cc23)cc1 ) = 7

Reported IC50 ( Cn1cc(Nc2nccc(-c3ccc4c(c3)CCCC[C@H]4NC(=O)c3nc(C(C)(C)C)no3)n2)cn1 ) = 0.4

* * *

Literature IC50 values, system: UniProt P11712.

The measured IC50 that COCn1ncc(-c2ccc(OCCCN3CCC[C@H]3C)cc2)cc1=O showed for UniProt P11712 is > 30 µM

The measured IC50 that O=C(O)/C=C/c1ccc(Cn2ccnc2)cc1OCCc1ccc2ccccc2c1 showed for UniProt P11712 is < 1 µM

The measured IC50 that Fc1ccc2nc(-c3ccccc3)[nH]c2c1CN1CCCC1 showed for UniProt P11712 is > 30 µM

The measured IC50 that CC[C@]1(C(=O)N2CC[C@](c3ccc(C(F)(C(F)(F)F)C(F)(F)F)cc3)(S(=O)(=O)c3ccc(F)cc3)C2)CC[C@H](C(=O)O)CC1 showed for UniProt P11712 is > 10 µM

The measured IC50 that CCCCC[C@@H](Cc1ccc(C(=O)NCCC(=O)O)cc1)C(=O)c1cc2cc(Cl)ccc2n1-c1cccc(C(F)(F)F)c1 showed for UniProt P11712 is > 11 µM

The measured IC50 that O=C1NN=C(c2ccc(OC3CCN(C4CCC4)CC3)cc2)[C@@H]2C[C@H]12 showed for UniProt P11712 is > 30 µM

The measured IC50 that Cc1ccc(-c2ccc3c(c2)CC(NS(=O)(=O)C(C)C)C3)cn1 (stereo not given) showed for UniProt P11712 is > 10 µM

The measured IC50 that N#Cc1cccc(S(=O)(=O)c2cnc3cc(F)ccc3c2-c2ccc(Cl)cc2)c1 showed for UniProt P11712 is > 10 µM

The measured IC50 that CC(C)S(=O)(=O)N[C@H]1Cc2ccc(-c3ccc(F)cn3)cc2C1 showed for UniProt P11712 is > 10 µM

The measured IC50 that Cn1nc(-c2ccc(OCCCN3CCCCC3)cc2)c2c(c1=O)CCC2 showed for UniProt P11712 is > 30 µM

The measured IC50 that O=C(/C=C/c1cccnc1)c1ccc2ccccc2c1 showed for UniProt P11712 is > 20 µM

The measured IC50 that CN([C@@H]1CCc2c(CC(=O)O)c3ncccc3n2C1)S(=O)(=O)c1ccc(F)cc1 showed for UniProt P11712 is > 30 µM

The measured IC50 that CC(C)n1nc(-c2cc(C3CC3)on2)c2c(N)ncnc21 showed for UniProt P11712 is > 30 µM

The measured IC50 that CC(C)(C)OC(=O)N1CCC(n2ncc3c(Oc4ccc(S(C)(=O)=O)cc4)ncnc32)CC1 showed for UniProt P11712 is > 3 µM

The measured IC50 that Cc1ccc(-c2ccc3c(c2)CC(NS(=O)(=O)C(C)C)C3)nc1 (stereo not given) showed for UniProt P11712 is > 10 µM
